experiment.summary: Quantitative High-Throughput drug screen in 47 multiple myeloma cell lines against the NCATS MIPE library collection: PCM6_Riken cell viability assay (AID 1919870); also: potency is read from the fitted curve at half-maximal effect; nearly all actives have a fitted effect of over 30% in size
particulars: CellTiter-Glo ATP, 48 h; series mostly up to 45.8 µM
Inconclusive results are not listed. The source made the active and inactive calls. Calls follow the shape of the dose curve; as a rule, active = well fitted cell-killing curve with a large enough effect; inconclusive = small, poorly fitted or top-dose-only effect, or effect the other way; inactive = no such curve, though single readings can be large or run the other way.
experimental.endpoint: Potency

smiles.text | result
O=C(O)c1ccc2cc(-c3ccc(O)c(C45CC6CC(CC(C6)C4)C5)c3)ccc2c1 | 16.6 µM (active)
Nc1nccc(Oc2ccc(NC(=O)c3c[nH]cc(-c4ccc(F)cc4)c3=O)cc2F)c1Cl | 18.7 µM (active)
Fc1cc(-c2cccc3ncc(-c4cnn(C5CCNCC5)c4)nc23)cc(F)c1CN1CCOCC1 | 7.43 µM (active)
O=C(C=Cc1cccc(S(=O)(=O)Nc2ccccc2)c1)NO | 2.41 µM (active)
CC(C)C[C@H](NC(=O)CNC(=O)c1cc(Cl)ccc1Cl)B(O)O | 0.0662 µM (active)
C#Cc1cccc(Nc2ncnc3cc(OC)c(OCCCCCCC(=O)NO)cc23)c1 | 0.187 µM (active)
COc1cc2c(Oc3ccc(NC(=O)C4(C(=O)Nc5ccc(F)cc5)CC4)cc3F)ccnc2cc1OCCCN1CCOCC1 | 10.5 µM (active)
CCCCOc1c(C(=O)c2c(F)cc(C)cc2F)cnc2n[nH]cc12 | 2.64 µM (active)

----------
experiment.summary: qHTS Assay for Identification of Small Molecule Antagonists for NFkB Signaling Pathway. (AID 624479);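 also: pathway stimulated with TNF alpha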
particulars: NFkB pathway reporter cell assay, antagonist mode; series mostly up to 38.3 µM
The source made the active and inactive calls. The call rests on the fitted dose curve.
Labels: active, inactive

compound | assigned.category
C=C1C(=CC=C2CCCC3(C)[C@@H]([C@H](C)C=CC=CC(O)(CC)CC)CC[C@@H]23)C[C@@H](O)C[C@@H]1O (some centres undefined) | active
CC[C@@H]1C(=O)N(C)c2cnc(Nc3ccc(C(=O)NC4CCC(N5CCN(CC6CC6)CC5)CC4)cc3OC)nc2N1C(C)C (some centres undefined) | active
COc1cc2ncn(-c3cc(OCc4ccccc4C(F)(F)F)c(C(N)=O)s3)c2cc1OC | inactive
Nc1nccc(Oc2ccc(NC(=O)c3c[nH]cc(-c4ccc(F)cc4)c3=O)cc2F)c1Cl | active

----------
experiment.summary: Identifying Small Molecule Inhibitors of Pancreatic Cancer Stem Cells (A278, Adherent) (AID 1259361);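 also: viability read after 48 h compound exposure; nearly all actives have a fitted effect of over 35% in size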
particulars: series mostly up to 46.1 µM
Records with an inconclusive call do not appear. Activity calls are given as the source filed them. Calls follow the shape of the dose curve; as a rule, active = well fitted cell-killing curve with a large enough effect; inconclusive = small, poorly fitted or top-dose-only effect; inactive = flat fitted curve, though single readings scatter.
Labels: True (active), False (inactive)

compound | assigned.category
Cc1ccc(S(=O)(=O)Nc2cc(Cl)ccc2C(=O)Nc2nc(-c3ccccc3)cs2)cc1 | True
CN1CC[C@@H](c2c(O)cc(O)c3c(=O)cc(-c4ccccc4Cl)oc23)[C@@H](O)C1 | True
Cn1c2cc(S(C)=O)sc2c2cnn(Cc3cccc(N)c3)c(=O)c21 (centres undefined) | False
O=C(C=Cc1cccc(S(=O)(=O)Nc2ccccc2)c1)NO | True
N#CCNC(=O)c1ccc(-c2ccnc(Nc3ccc(N4CCOCC4)cc3)n2)cc1 | True
CCCCN1CCC(CNC(=O)c2c3n(c4ccccc24)CCCO3)CC1 | False
CC(C)(C)c1cc(NC(=O)Nc2ccc(-c3cn4c(n3)sc3cc(OCCN5CCOCC5)ccc34)cc2)no1 | True
C[C@@]12O[C@@H](C[C@]1(O)CO)n1c3ccccc3c3c4c(c5c6ccccc6n2c5c31)CNC4=O | True
Fc1cc(-c2cccc3ncc(-c4cnn(C5CCNCC5)c4)nc23)cc(F)c1CN1CCOCC1 | True
